FYI, the data here is from patent US7317038B2.

Assay: Solubility
Assay type: physicochemical
Conditions: water, hexane
quantity.kind: Solubility

>>> result("CC(=O)c1c(C)c(-c2cc(=O)c3c(C(=O)O)cc(O)cc3o2)cc2c(=O)c3c(C(=O)O)c(O)c(O)cc3oc12")
"Insoluble"
>>> result("CC(=O)c1cc2c(=O)c3cc(O)c(O)cc3oc2c(C(C)=O)c1-c1coc2cc(O)c(O)cc2c1=O")
"Insoluble"
>>> result("CC(=O)c1cc2c(=O)c3c(C(=O)O)cc(O)cc3oc2c(C(C)=O)c1-c1coc2cc(O)c(O)c(C(=O)O)c2c1=O")
"Insoluble"
>>> result("CC(=O)c1c(C)c(C(=O)C2COc3cc(O)c(O)cc3C2=O)cc2c(=O)c3c(C(=O)O)c(O)c(O)cc3oc12 (stereo not shown)")
"Insoluble"
>>> result("CC(=O)c1cc2c(=O)c3c(C(=O)O)cc(O)cc3oc2c(C(C)=O)c1-c1coc2cc(O)c(O)cc2c1=O")
"Insoluble"
>>> result("COC(=O)c1cc(O)cc2oc(-c3cc4c(=O)c5c(C(=O)O)c(O)c(O)cc5oc4c(C(C)=O)c3C)cc(=O)c12")
"Insoluble"
>>> result("COCc1c(-c2cc3c(=O)c4cc(O)c(O)cc4oc3c(C(C)=O)c2C)oc2cc(O)c(O)c(C(=O)O)c2c1=O")
"Insoluble"
>>> result("CC(=O)c1c(C)c(C(=O)C2(O)COc3cc(O)c(O)cc3C2=O)cc2c(=O)c3c(C(=O)O)c(O)c(O)cc3oc12 (stereo not shown)")
"Insoluble"
>>> result("CC(=O)c1c(C)c(-c2cc(=O)c3c(C(=O)O)c(O)c(O)cc3o2)cc2c(=O)c3c(C(=O)O)c(O)c(O)cc3oc12")
"Insoluble"
>>> result("COCc1c(-c2cc3c(=O)c4c(C(=O)O)c(O)c(O)cc4oc3c(C(C)=O)c2C)oc2cc(O)c(O)c(C(=O)O)c2c1=O")
"Insoluble"
>>> result("CC(=O)c1c(C)c(C(=O)C2COc3cc(O)c(O)cc3C2=O)cc2c(=O)c3cc(O)c(O)cc3oc12 (stereo not shown)")
"Insoluble"
>>> result("CC(=O)c1cc(-c2c(C(C)=O)cc3c(=O)c4cc(O)c(O)cc4oc3c2C(C)=O)cc(C(=O)c2cc(O)c(O)cc2O)c1O")
"Insoluble"
>>> result("CC(=O)c1c(C)c(C(=O)C2COc3cc(O)c(O)c(C(=O)O)c3C2=O)cc2c(=O)c3c(C(=O)O)cc(O)cc3oc12 (stereo not shown)")
"Insoluble"

###

Molecular target: Sema3A (Mus musculus, UniProt O08665)
Construct: expressed in transfected cells; host or cells: COS7
Sequence (O08665 21-772): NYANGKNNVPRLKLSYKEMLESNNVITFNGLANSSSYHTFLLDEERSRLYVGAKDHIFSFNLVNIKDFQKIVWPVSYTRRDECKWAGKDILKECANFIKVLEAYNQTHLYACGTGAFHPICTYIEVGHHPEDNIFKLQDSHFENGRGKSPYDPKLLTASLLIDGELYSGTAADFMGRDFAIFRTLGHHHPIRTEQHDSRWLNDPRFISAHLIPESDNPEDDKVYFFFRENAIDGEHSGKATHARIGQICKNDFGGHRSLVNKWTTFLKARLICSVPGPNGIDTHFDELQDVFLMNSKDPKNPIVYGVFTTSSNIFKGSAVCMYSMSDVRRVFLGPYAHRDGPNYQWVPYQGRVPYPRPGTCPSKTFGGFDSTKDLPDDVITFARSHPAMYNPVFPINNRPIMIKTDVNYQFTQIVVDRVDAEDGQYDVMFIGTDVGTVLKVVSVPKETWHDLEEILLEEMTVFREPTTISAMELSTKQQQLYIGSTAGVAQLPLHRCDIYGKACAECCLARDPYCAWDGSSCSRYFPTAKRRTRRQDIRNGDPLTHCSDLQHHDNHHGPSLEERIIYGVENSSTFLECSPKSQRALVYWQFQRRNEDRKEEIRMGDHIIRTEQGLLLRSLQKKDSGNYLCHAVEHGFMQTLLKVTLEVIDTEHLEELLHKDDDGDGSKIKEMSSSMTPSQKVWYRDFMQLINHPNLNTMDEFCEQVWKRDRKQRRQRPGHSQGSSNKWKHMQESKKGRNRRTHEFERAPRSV
Experiment: Collagen gel co-culture: suppression of neurite outgrowth inhibitory action of Sema3A
Type: cell-based
Design: key: neurites outgrew in a complete concentric circular shape just like for the control groups where Sema3A-non-expressing COS7 cells were used, it was scored +++ (a strong inhibitory effect for Sema3A); outgrowth was found almost in a concentric circular shape accompanied with a little suppression of the outgrowth toward the direction of Sema3A-expressing COS cells, it was scored ++; outgrowth toward the direction of Sema3A-expressing COS cells is fairly suppressed to present a crescent shape, it was scored +; outgrowth toward the direction of Sema3A-expressing COS cells was not found at all (no inhibitory effect for Sema3A), it was scored −
Details: 20 μg/ml compound; Example 16
quantity.kind: inhibition of neurite outgrowth-inhibitory action of Sema3A, score

>>> result("COCc1c(-c2cc3c(=O)c4c(C(=O)O)c(O)c(O)cc4oc3c(C(C)=O)c2C)oc2cc(O)c(O)c(C(=O)O)c2c1=O [SPF-3059-6]")
"+++"
>>> result("CC(=O)c1c(C)c(C(=O)C2COc3cc(O)c(O)c(C(=O)O)c3C2=O)cc2c(=O)c3c(C(=O)O)cc(O)cc3oc12 (stereo not shown) [SPF-3059-7]")
"++"
>>> result("CC(=O)c1cc2c(=O)c3c(C(=O)O)c(O)c(O)cc3oc2c(C(C)=O)c1-c1coc2cc(O)cc(C(=O)O)c2c1=O [SPF-3059-12]")
"++"
>>> result("CC(=O)c1cc2c(=O)c3c(C(=O)O)cc(O)cc3oc2c(C(C)=O)c1-c1coc2cc(O)c(O)c(C(=O)O)c2c1=O [SPF-3059-4]")
"++"
